experimental system: T1, IL-18 receptor (IL-18Rαβ) on cells (UniProt Q13478 19-541; O95256 20-599, limits assumed)
T1 sequence (looked up) 1: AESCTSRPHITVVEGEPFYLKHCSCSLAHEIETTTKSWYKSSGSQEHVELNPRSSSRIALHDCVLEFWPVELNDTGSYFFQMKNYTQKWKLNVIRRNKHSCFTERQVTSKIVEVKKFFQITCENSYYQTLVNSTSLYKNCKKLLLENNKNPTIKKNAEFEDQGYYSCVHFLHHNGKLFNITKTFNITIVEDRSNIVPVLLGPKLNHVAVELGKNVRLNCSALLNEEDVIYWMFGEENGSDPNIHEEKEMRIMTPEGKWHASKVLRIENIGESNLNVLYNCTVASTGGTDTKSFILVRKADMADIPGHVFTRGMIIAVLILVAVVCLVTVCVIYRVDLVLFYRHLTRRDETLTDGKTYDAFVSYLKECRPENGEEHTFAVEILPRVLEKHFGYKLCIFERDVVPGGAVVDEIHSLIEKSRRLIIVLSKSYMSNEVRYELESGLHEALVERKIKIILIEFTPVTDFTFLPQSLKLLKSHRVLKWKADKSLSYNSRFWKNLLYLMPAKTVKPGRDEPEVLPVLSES
T1 sequence (looked up) 2: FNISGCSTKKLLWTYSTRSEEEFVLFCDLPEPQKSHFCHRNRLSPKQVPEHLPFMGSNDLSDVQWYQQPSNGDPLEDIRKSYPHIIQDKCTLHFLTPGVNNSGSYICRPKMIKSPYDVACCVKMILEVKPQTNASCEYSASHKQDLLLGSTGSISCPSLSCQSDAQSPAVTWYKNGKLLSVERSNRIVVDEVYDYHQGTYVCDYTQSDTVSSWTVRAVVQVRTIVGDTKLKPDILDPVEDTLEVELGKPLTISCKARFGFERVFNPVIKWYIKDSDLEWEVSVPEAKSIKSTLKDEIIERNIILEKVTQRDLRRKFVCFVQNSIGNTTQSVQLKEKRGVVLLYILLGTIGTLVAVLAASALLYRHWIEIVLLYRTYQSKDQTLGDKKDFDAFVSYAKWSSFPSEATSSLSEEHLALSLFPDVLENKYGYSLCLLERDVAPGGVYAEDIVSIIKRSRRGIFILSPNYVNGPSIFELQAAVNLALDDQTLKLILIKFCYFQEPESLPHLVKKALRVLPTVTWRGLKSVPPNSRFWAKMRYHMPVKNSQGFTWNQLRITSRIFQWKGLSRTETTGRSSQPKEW
assay info: cell-based or functional assay
Consider the following binders and their measured EC50 (IFNγ stimulation, NK92) readings.

{"binder": "C147 (ligand) YFGKLESKLSIIRNLNDQVLFIDQGNRPLFEDMTDSDARDNAPRTIFIISMYAASQPRGMAVTISVKCEKISTLSAENKIISFKEMNPPDNIKDTKSDIIFFQRSVPGHDNKMQFESSSYEGYFLAAEKERDLFKLILKKEDELGDRSIMFTVQNED", "uom": "pM", "EC50 (IFNγ stimulation, NK92)": 79}
{"binder": "SEQ ID NO 54 (ligand) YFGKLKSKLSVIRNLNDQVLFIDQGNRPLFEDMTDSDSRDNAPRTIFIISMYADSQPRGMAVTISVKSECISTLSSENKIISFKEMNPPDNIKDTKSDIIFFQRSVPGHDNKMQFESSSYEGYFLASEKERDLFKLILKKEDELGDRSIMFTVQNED", "uom": "pM", "EC50 (IFNγ stimulation, NK92)": 962}
{"binder": "C163 (ligand) YFGKLESKLSIIRNLNDQVLFIDQGNRPLFEDMTDSDARDNAPRTIFIISMYKDSQPRGMAVTISVKCEKISTLSAENKIISFKEMNPPDNIKDTKSDIIFFKRSVPGHDNKMQFESSSYEGYFLAAEKERDLFKLILKKEDELGDRSIMFTVQNED", "uom": "pM", "EC50 (IFNγ stimulation, NK92)": 93}
{"binder": "SEQ ID NO 55 (ligand) YFGKLESKLSVIRNLNDQVLFIDQGNRPLFEDMTDSDSRDNAPRTIFIISMYADSQPRGMAVAISVKSECISTLSSENKIISFKEMNPPDNIKDTKSDIIFFQRSVPGHDNKMQFESSSYEGYFLASEKERDLFKLILKKEDELGDRSIMFTVQNED", "uom": "pM", "EC50 (IFNγ stimulation, NK92)": 17200}
{"binder": "SEQ ID NO 34 (ligand) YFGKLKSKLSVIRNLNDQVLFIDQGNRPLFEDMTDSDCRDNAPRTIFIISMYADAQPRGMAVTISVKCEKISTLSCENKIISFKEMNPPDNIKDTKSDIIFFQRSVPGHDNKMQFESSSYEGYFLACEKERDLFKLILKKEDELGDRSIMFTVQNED", "uom": "pM", "EC50 (IFNγ stimulation, NK92)": 824}
{"binder": "C160 (ligand) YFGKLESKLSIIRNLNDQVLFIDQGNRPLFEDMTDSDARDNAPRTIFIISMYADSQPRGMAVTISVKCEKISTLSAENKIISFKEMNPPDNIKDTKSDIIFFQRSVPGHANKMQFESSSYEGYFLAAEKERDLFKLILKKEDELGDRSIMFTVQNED", "uom": "pM", "EC50 (IFNγ stimulation, NK92)": 28}
{"binder": "C159 (ligand) YFGKLESKLSIIRNLNDQVLFIDQGNRPLFEDMTDSDARDNAPRTIFIISMYADSQPRGMAVTISVKCEKISTLSAENKIISFKEMNPPDNIKDTKSDIIFFQRSVPGADNKMQFESSSYEGYFLAAEKERDLFKLILKKEDELGDRSIMFTVQNED", "uom": "pM", "EC50 (IFNγ stimulation, NK92)": 123}
